I'd be grateful if you could share measured inhibition at 10 µM for these entries.
- Tgt: cGMP-PDE V (Homo sapiens, UniProt O76074)
- Construct: The cGMP-PDE and other PDE isozymes were isolated from cardiovascular tissues (heart and aorta); from tissue; host or cells: cardiovascular tissues (heart and aorta) of various animal species and man
- Assay remarks: c-GMP-PDE V inhibitory activity (cyclic nucleotide hydrolysis by isolated PDE isozymes)
- Type: biochemical, various animal species and man
- Condition description: 10 μM; read-out: Percent Inhibition cGMP-PDE V
Numbers only, in %.

molecule="CCn1ncc2c(NCc3ccccc3)c3ccc(O)cc3nc21 [Example 6]" result_units=% number=85
molecule="CCn1ncc2c(NCc3ccncc3)c3ccccc3nc21 [Example 8]" result_units=% number=50

Now take the following molecule into account.
Reading of inhibition at 10 µM for CCn1ncc2c(NCc3ccccc3)c3ccc(OC)cc3nc21 [5(e)] with cGMP-PDE V (Homo sapiens, UniProt O76074): 85
